Test: Inhibition of TNF-alpha-induced NF-kappaB expressed in human A549 cells treated 1 hr after TNFalpha challenge measured after 6 hrs by luciferase reporter gene assay
Assay type: cell-based
reportedProperty: IC50
Express the reported value numerically, then name its unit.

molecule	measurement
COc1cc(/C=C/c2ccccc2)oc(=O)c1 [DESMETHOXYYANGONIN]	33 µg/mL
COC1=CC(=O)O[C@@H](/C=C/c2ccccc2)C1 [KAVAIN]	32 µg/mL
COC1=CC(=O)O[C@@H](CCc2ccc3c(c2)OCO3)C1 [DIHYDROMETHYSTICIN]	20 µg/mL
COc1cc(O)c(C(=O)/C=C/c2ccc(O)cc2)c(OC)c1 [FLAVOKAWAIN C]	8.1 µg/mL

Here is another molecule to look at.
Just so you know, measured IC50 for COc1cc(O)c(C(=O)/C=C/c2ccccc2)c(OC)c1 [FLAVOKAWAIN B] came out at 8 µg/mL

----------
Assay: Inhibition of TNF-alpha-induced NF-kappaB expressed in human A549 cells treated 1 hr after TNFalpha challenge measured after 6 hrs by luciferase reporter gene assay
Format: cell-based
reportedProperty: IC50
Please report the result as a number followed by the unit.

Before answering, review these 2 worked examples.
compound	IC50
COc1ccc(/C=C/C(=O)c2c(O)cc(OC)cc2OC)cc1	11.6 µg/mL
COC1=CC(=O)O[C@@H](/C=C/c2ccc3c(c2)OCO3)C1	0.19 µg/mL

IC50 measured on COC1=CC(=O)O[C@@H](CCc2ccccc2)C1 [DIHYDROKAWAIN] = 60 µg/mL

----------
Assay: Hepatotoxicity against mouse Hepa-1c1c7 cells after 48 hrs by celltiter blue assay
Format: toxicity, cell-based
Response field label: string, one of Condition met (IC50 at 48 h strictly below 200 µg/mL) or Condition not met.

compound	classLabel
COc1cc(/C=C/c2ccccc2)oc(=O)c1	Condition met

Hello, is IC50 at 48 h of the following compound strictly smaller than 200 µg/mL? COC1=CC(=O)O[C@@H](CCc2ccc3c(c2)OCO3)C1 [DIHYDROMETHYSTICIN]
Condition not met

Is it true that IC50 at 48 h reported for COC1=CC(=O)O[C@@H](CCc2ccccc2)C1 [DIHYDROKAWAIN] is less than 200 µg/mL?
Condition met

I wonder whether COC1=CC(=O)O[C@@H](/C=C/c2ccc3c(c2)OCO3)C1 has IC50 at 48 h below 200 µg/mL. Can you tell?
Condition not met

Decide: IC50 at 48 h of COc1ccc(/C=C/C(=O)c2c(O)cc(OC)cc2OC)cc1 strictly below 200 µg/mL?
Condition met

----------
Test: Hepatotoxicity against mouse Hepa-1c1c7 cells after 48 hrs by celltiter blue assay
Assay type: toxicity, cell-based
reportedProperty: IC50 at 48 h (µg/mL)
Give just the number in µg/mL; leave the unit off.

Consider the worked cases shown below.
compound	IC50 at 48 h / µg/mL
COc1cc(O)c(C(=O)/C=C/c2ccc(O)cc2)c(OC)c1 [FLAVOKAWAIN C]	9.8
COC1=CC(=O)O[C@@H](/C=C/c2ccccc2)C1 [KAVAIN]	166

Turning now to a further record.
The compound listed as COc1cc(O)c(C(=O)/C=C/c2ccccc2)c(OC)c1 [FLAVOKAWAIN B] has a reported IC50 at 48 h of 6.6
